Just for reference, PubChem BioAssay is where these values come from.

// composite z-score lookup, one value per entry
Assay system: Calmodulin-1 (Homo sapiens)
Assay info: CALM1 binders on microarrays, EGTA buffer, profiling panel, biochemical, small-molecule microarray, Cy5-labelled CALM1 (AID 1111);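 also: labelled calmodulin applied in Tris saline Tween buffer holding calcium plus EGTA and DTT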
Experimental setup: Cy5-CALM1 binding fluorescence, higher = more signal

Guide cases for composite z-score, answers given:
C=CC[C@]1(C(=O)O)N=C(c2ccc(OCCCO)cc2)O[C@H]1c1ccccc1N=[N+]=[N-] = 1.74
CC(C)N1CC=CC23O[C@@H]4/C=C\CCCOC(=O)C4[C@H]2C(=O)N(CCO)[C@@H]3C1=O (some centres undefined) = -0.428

Ask | Item under review: O=C1OCC=C[C@H]2OC34C=CCN(Cc5ccccc5)C(=O)[C@H]3N(CCCCCO)C(=O)[C@@H]4[C@@H]12 (some centres undefined) . Reported composite z-score?
Reply | -0.398

Ask | Item under review: "COc1ccc([Si](C)(C)[C@@H]2[C@@H](CC(=O)N(CCO)Cc3ccccc3)O[C@]3(C(=O)N(Cc4cccc(N5CCC5=O)c4)c4ccccc43)[C@H]2C)cc1" . Reported composite z-score?
Reply | -0.0736

====

Assay system: Torsin-1A-interacting protein 2 (Homo sapiens)
Assay info: LULL1 binders on small-molecule microarray, primary screen, cell lysate, human LULL1 lysate, 635/667 nm fluorescence (AID 1092);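 also: probe is lysate of COS7 cells overexpressing human LULL1; score merges per-feature 667 nm fluorescence with signal-to-noise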
Experimental setup: hLULL1 lysate binding, 635 nm fluorescence, higher = more signal
Property measured: composite z-score
Form field (numeric): enter value without unit.

CO[C@@H]1COC(=O)[C@H](C)NC(=O)CC=C[C@@H](C)[C@H](NS(=O)(=O)c2ccc(C)cc2)COC(=O)CC=C[C@@H]1C = -0.382
COc1ccc(-c2ccccc2[C@@H]2N[C@H](C(=O)O)CC[C@H]2C)cc1 = 0.47
COc1cc(Cc2cc3c(c(CCc4ccccc4)n2)[Si](C(C)C)(C(C)C)OC3)cc(OC)c1OC = -0.244

# evaluate next
Ask | Item under review: "COC(=O)[C@@]1(Cc2ccc(OC)cc2)[C@H]2c3cc(C(=O)N(C)C)n(Cc4ccc(C)c(F)c4F)c3C[C@H]2CN1C(=O)c1ccccc1" . Reported composite z-score?
Reply | 2.84

====

// composite z-score lookup, one value per entry
Tested on: Sonic hedgehog protein (Shh)
Assay info: small-molecule binders of Shh protein, primary screen, biochemical, small-molecule microarray, 635/667 nm fluorescence (AID 1151);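 also: Shh protein binding to compounds spotted on small-molecule microarray slides; score combines spot fluorescence intensity with signal-to-noise across triplicate slides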
Experimental setup: small-molecule microarray binding, 635 nm fluorescence; higher = more signal
Form field (numeric): enter value without unit.

Guide cases for composite z-score, answers given:
CC(=O)NCCCC[C@@H]1NC(=O)[C@@H]2C[C@H](C(=O)NCc3ccc(F)cc3)[C@H](c3cccc(OCCO)c3)N2C1=O = 1.8
COCCCNC(=O)[C@@H]1c2ccccc2C(=O)N(CC23CC4CC(CC(C4)C2)C3)[C@H]1c1ccc(CO)cc1 = 1.03
COc1cc(CO)cc(I)c1O[C@H]1C=C(C(=O)NCCO)C[C@@H](N(CC2CCCCC2)C(=O)c2cc3ccccc3oc2=O)[C@@H]1O = 0.568
CCOC(=O)[C@H]1C/C=C/C[C@H](C(=O)OCC)C(=O)O[C@H]2[C@@H](OC)O[C@H](CO)[C@@H](OC(=O)Nc3ccc(Br)cc3)[C@@H]2OC1=O = 0.69
CCC#CCN(Cc1ccccc1Br)[C@H](/C=C/c1ccccc1)[C@@H](O)Cc1ccccc1 = -1.18

Ask | Item under review: "CO[C@H]1COC(=O)[C@@H](C)NC(=O)CC=C[C@@H](C)[C@H](OC)COC(=O)CC=C[C@@H]1C" . Reported composite z-score?
Reply | 2.21

Ask | Item under review: "CO[C@H]1O[C@H](CO)[C@@H](OC(=O)Nc2ccc(Oc3ccccc3)cc2)[C@H](OC(=O)Nc2ccccc2-c2ccccc2)[C@H]1OC(=O)Nc1ccccc1-c1ccccc1" . Reported composite z-score?
Reply | 1.24

====

Assay info: basal S. cerevisiae growth modulation, no modifier, primary screen, OD600, strain BY4716, 24 h, basal condition (AID 1173)
Experimental setup: OD600, 24 h, higher = more signal, called active from +8 up or from −8 down
Short version: z-score at least 0.4 is MET, less is NOT MET.

CCOC(=O)C1=CCC(c2cccc3ccccc23)N(S(=O)(=O)c2ccc(C)cc2)C1 (configuration not stated) = MET
Cc1ccc(S(=O)(=O)N2[C@@H](c3ccccc3)C(C(=O)O)=CC[C@H]2c2ccccc2)cc1 = NOT MET

Ask | Is the recorded value of z-score equal to or greater than 0.4 for this compound? "O=C(CS)NCCCCCCNC(=O)[C@@H]1C[C@@H]2C(=O)N[C@@H](Cc3ccccc3)C(=O)N2[C@@H]1c1ccc(O)cc1"
Reply | MET

Ask | Is the recorded value of z-score equal to or greater than 0.4 for this compound? "C=CCNC(=O)[C@H]1[C@@H]2C(=O)O[C@@H](c3ccccc3)[C@@H](c3ccccc3)N2[C@@H](c2ccc(O)cc2)[C@]12C(=O)Nc1ccc(C#CCNC(N)=O)cc12"
Reply | NOT MET

Ask | Is the recorded value of z-score equal to or greater than 0.4 for this compound? "CCCCCCc1nc(C2CC2)c(C)c2c1[Si](C(C)C)(C(C)C)OC2"
Reply | NOT MET

Ask | Is the recorded value of z-score equal to or greater than 0.4 for this compound? CC(c1ccccc1)C(O)C1C=CC2C(=O)N(C)C(=O)C2N1N(c1ccccc1)c1ccccc1 (configuration not stated)
Reply | NOT MET

Ask | Is the recorded value of z-score equal to or greater than 0.4 for this compound? "COc1ccc([Si](C)(C)[C@H]2[C@H](CCO)O[C@@]3(C(=O)N(Cc4ccccc4)c4ccc(N5C(=O)c6cccc7cccc5c67)cc43)[C@@H]2C)cc1"
Reply | MET

====

// composite z-score lookup, one value per entry
Assay info: binders of probe aFGF10 on microarray, primary screen, stem cell growth factor project, biochemical, small-molecule microarray, fluorescence 635/667 (AID 1071);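 also: score merges 667 nm spot intensity and signal to noise from triplicate slides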
Experimental setup: higher = more signal
Form field (numeric): enter value without unit.

C=CCC(OC(C)=O)[C@@H]1[C@@H](N(Cc2ccc(-c3ccccc3)cc2)C(=O)c2ccc(-c3ccccc3)cc2)c2cc(OCCCO)ccc2N1C(=O)Cc1ccc(OC)cc1 (some centres undefined) = 0.27
CCN1C(C)=C(C(=O)OC)[C@@H](c2ccccc2)N2C(=O)[C@@]3(C(=O)OC)O[C@@]12[C@@H]1C(=O)CCC[C@@H]13 = 0.234
C=C[C@H](OC)[C@@H](OC(=O)Nc1ccc(SC)cc1)c1ccc(OC)c(O)c1 = -0.748

# evaluate next
Ask | Item under review: "O=C1O[C@@H](c2ccccc2)[C@@H](c2ccccc2)N2[C@@H](c3ccc(O)cc3)[C@]3(C(=O)Nc4ccc(C#CC5(O)CCCCCC5)cc43)[C@@H](C(=O)Nc3nc4ccccc4s3)[C@H]12" . Reported composite z-score?
Reply | 0.814

====

Assay system: Calmodulin-1 (Homo sapiens) (UniProt P0DP23)
Assay info: CALM1 binders on microarrays, EGTA buffer, profiling panel, biochemical, small-molecule microarray, Cy5-labelled CALM1 (AID 1111);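 also: labelled calmodulin applied in Tris saline Tween buffer holding calcium plus EGTA and DTT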
Experimental setup: Cy5-CALM1 binding fluorescence, higher = more signal
Short version: composite z-score at least 0.4 is T, less is F.

Ask | Is the recorded value of composite z-score equal to or greater than 0.4 for this compound? "C[C@H]1COC(=O)[C@H](Cc2ccccc2)NC(=O)[C@@H](C)COC(=O)[C@H](Cc2ccccc2)NC1=O"
Reply | F

Ask | Is the recorded value of composite z-score equal to or greater than 0.4 for this compound? C[C@H]1C2[C@H](Cc3ccccc3)NC(=O)[C@]23C(=O)N[C@H](Cc2ccccc2)C(=O)N[C@@H](Cc2ccccc2)C(=O)NC/C=C\C/C=C/C3[C@@H]2O[C@]12C (some centres not stated)
Reply | F

Ask | Is the recorded value of composite z-score equal to or greater than 0.4 for this compound? "COc1cc(CO)cc(I)c1O[C@H]1C=C(C(=O)NCCO)C[C@@H](N(CC2CCCCC2)C(=O)c2cc3ccccc3oc2=O)[C@@H]1O"
Reply | F

Ask | Is the recorded value of composite z-score equal to or greater than 0.4 for this compound? "NC(=O)NCC#Cc1ccc2c(c1)[C@]1(C(=O)N2)[C@H](c2ccccc2OCCO)N2[C@H](c3ccccc3)[C@H](c3ccccc3)OC(=O)[C@H]2[C@@H]1C(=O)N1CCN(c2ncccn2)CC1"
Reply | T

Ask | Is the recorded value of composite z-score equal to or greater than 0.4 for this compound? "C=CC[C@]1(C(=O)OC)N=C(c2ccc(OCCCO)cc2)O[C@H]1c1ccccc1CN=[N+]=[N-]"
Reply | F

Ask | Is the recorded value of composite z-score equal to or greater than 0.4 for this compound? COC(=O)c1ccc(C#CC(NP(=O)(c2ccccc2)c2ccccc2)c2ccccc2)cc1 (configuration not stated)
Reply | T

Ask | Is the recorded value of composite z-score equal to or greater than 0.4 for this compound? "CC(C)[Si]1(C(C)C)O[C@@H](c2ccccc2)c2cc(C3CC3)nc(-c3ccc(Oc4ccccc4)cc3)c21"
Reply | F
